# measured-on: human TLR9 (Homo sapiens)
# test-method-notes: TLR9 inhibition reporter assay (HEK-Blue cells, SEAP reporter, ODN2006 stimulation)
# condition-summary: HEK-Blue cells overexpressing human TLR9, SEAP reporter, ODN2006 5 nM
pIC50: −log10 of the molar value.
assay-readout: pIC50

>>> value_reported("COc1cc(-c2[nH]c3ccc(C4CCC(N5CC6(COC6)C5)CC4)cc3c2C(C)C)cn2ncnc12 (stereo not shown) [Example 96]")
5.76
>>> value_reported("CNC(=O)CN1CC(c2ccc3[nH]c(-c4cc(OC)c5ncnn5c4)c(C(C)C)c3c2)C1 [Example 263]")
5.44
>>> value_reported("COc1cc(-c2[nH]c3ccc(C4CNCCO4)cc3c2C(C)C)cn2ncnc12 (stereo not shown) [Example 285]")
6.02
>>> value_reported("Cc1cc(-c2[nH]c3ccc(C4CN(CC(N)=O)CCO4)cc3c2C(C)C)cc(C)n1 (stereo not shown) [Example 324]")
4.35
>>> value_reported("COc1cc(-c2[nH]c3ccc(C4CCC(N5CC(O)C5)CC4)cc3c2C(C)C)cn2ncnc12 (single isomer, unassigned) [Example 22]")
5.92

---

# measured-on: human TLR9 (Homo sapiens, UniProt Q9NR96)
# Sequence (Q9NR96 26-1032): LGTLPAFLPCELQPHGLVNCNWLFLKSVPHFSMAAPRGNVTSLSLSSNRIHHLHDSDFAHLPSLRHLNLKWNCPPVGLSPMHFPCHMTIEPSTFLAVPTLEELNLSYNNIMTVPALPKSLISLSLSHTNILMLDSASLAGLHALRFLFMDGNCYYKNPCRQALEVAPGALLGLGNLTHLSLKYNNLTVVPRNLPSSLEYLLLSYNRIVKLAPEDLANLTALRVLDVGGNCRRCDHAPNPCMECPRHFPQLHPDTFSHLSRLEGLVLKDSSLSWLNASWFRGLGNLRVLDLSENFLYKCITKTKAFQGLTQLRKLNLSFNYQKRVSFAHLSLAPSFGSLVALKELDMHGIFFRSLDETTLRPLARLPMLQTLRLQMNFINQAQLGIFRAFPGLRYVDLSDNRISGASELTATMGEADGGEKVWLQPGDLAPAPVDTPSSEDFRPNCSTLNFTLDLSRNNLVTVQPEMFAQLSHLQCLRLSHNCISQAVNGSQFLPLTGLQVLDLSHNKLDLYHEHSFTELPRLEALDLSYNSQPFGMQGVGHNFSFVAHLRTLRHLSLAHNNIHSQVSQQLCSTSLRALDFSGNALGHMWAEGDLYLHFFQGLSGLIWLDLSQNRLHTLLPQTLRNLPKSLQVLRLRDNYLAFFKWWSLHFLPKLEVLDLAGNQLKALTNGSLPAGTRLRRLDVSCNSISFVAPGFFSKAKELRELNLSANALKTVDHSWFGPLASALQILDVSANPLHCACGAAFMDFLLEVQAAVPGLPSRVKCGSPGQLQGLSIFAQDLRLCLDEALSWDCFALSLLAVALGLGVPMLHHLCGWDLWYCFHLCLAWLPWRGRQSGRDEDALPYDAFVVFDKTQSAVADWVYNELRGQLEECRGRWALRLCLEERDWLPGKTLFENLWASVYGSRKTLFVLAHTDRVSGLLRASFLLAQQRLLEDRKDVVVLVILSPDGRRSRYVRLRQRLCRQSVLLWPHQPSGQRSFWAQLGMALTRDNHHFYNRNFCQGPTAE
# test-method-notes: TLR9 inhibition reporter assay (HEK-Blue cells, SEAP reporter, ODN2006 stimulation)
# condition-summary: HEK-Blue cells overexpressing human TLR9, SEAP reporter, ODN2006 5 nM
pIC50: −log10 of the molar value.
# pIC50 per entry
assay-readout: pIC50

>>> value_reported("COc1cc(-c2[nH]c3ccc(C4CCC(N5CCOCC5)CC4)cc3c2C(C)C)cn2ncnc12 (centres unmarked) [Example 69]")
5.78
>>> value_reported("Cc1c(-c2[nH]c3ccc(C4CN(CC(=O)N(C)C)C4)cc3c2C(C)C)cn2cnnc2c1C [Example 539]")
5.72
>>> value_reported("CNC1CCC(c2ccc3[nH]c(-c4cc(C)nc(C)c4)c(C(C)C)c3c2)CC1 (single isomer, unassigned) [Example 52]")
6.48
>>> value_reported("CC(C)c1c(-c2ccnc3[nH]ncc23)[nH]c2ccc(C3CCCNCC3)cc12 (centres unmarked) [Example 501]")
6.13
>>> value_reported("Cc1cc(-c2[nH]c3ccc(C4CCC(NC5COC5)CC4)cc3c2C(C)C)cc(C)n1 (centres unmarked) [Example 60]")
6.30
>>> value_reported("CNCC(=O)N1CCCC(c2ccc3[nH]c(-c4cn5ncnc5c(C)c4C)c(C(C)C)c3c2)C1 (centres unmarked) [Example 214]")
5.23

---

# measured-on: human TLR7 (Homo sapiens, UniProt Q9NYK1)
# Construct: host or cells: HEK-Blue cells
# Sequence (Q9NYK1 27-1049): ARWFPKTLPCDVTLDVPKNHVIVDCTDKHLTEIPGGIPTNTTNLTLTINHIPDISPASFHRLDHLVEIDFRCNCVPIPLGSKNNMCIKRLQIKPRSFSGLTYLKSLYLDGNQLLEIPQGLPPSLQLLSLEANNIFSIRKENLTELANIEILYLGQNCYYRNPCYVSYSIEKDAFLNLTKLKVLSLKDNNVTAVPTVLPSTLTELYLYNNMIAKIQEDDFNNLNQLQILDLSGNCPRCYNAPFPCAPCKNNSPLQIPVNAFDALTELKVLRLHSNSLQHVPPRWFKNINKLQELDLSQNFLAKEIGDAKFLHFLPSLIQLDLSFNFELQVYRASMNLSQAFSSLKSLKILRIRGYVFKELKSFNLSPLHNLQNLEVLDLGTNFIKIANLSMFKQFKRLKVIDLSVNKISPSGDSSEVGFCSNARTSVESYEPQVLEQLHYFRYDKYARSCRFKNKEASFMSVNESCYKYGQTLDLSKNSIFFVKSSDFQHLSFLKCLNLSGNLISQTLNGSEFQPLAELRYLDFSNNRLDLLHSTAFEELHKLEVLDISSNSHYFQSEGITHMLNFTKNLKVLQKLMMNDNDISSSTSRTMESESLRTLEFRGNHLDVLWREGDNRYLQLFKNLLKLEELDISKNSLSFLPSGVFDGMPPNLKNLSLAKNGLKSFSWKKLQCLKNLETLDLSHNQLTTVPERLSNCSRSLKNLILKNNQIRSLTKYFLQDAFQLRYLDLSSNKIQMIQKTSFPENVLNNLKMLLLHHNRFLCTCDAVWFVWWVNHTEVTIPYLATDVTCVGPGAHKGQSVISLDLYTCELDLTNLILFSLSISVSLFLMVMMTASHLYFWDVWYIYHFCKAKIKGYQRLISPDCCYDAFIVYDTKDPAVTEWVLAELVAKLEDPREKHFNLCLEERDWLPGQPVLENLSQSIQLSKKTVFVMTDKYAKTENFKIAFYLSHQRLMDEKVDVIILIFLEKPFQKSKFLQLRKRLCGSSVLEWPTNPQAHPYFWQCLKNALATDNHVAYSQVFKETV
# test-method-notes: TLR7 inhibition reporter assay (HEK-Blue cells, SEAP reporter, gardiquimod stimulation)
# Format: cell-based
# condition-summary: HEK-Blue cells overexpressing human TLR7, SEAP reporter, gardiquimod 7.5 μM
assay-readout: IC50

>>> value_reported("Cc1c(-c2[nH]c3ccc(C4CNC(C)(C)CO4)cc3c2C(C)C)cn2ncnc2c1C (stereo not drawn) [Example 370]")
"2 nM"
>>> value_reported("Cc1cc(-c2[nH]c3ccc(C4CN(C(=O)CN(C)C)C(C)(C)CO4)cc3c2C(C)C)cn2ncnc12 (single isomer, unassigned) [Example 373]")
"6 nM"
>>> value_reported("COc1cc(-c2[nH]c3ccc(C4CCC(N5CCC5)CC4)cc3c2C(C)C)cn2ncnc12 (stereo not drawn) [Example 77]")
"1 nM"
>>> value_reported("CNC(=O)CN1CCOC(c2ccc3[nH]c(-c4cc(C)c5ncnn5c4)c(C(C)C)c3c2)C1 (stereo not drawn) [Example 307]")
"8 nM"
>>> value_reported("COc1cc(-c2[nH]c3ccc(C4CCC(N(C)C(C)C)C4)cc3c2C(C)C)cn2ncnc12 (single isomer, unassigned) [Example 278]")
"2 nM"
>>> value_reported("COc1cc(-c2[nH]c3ccc(C4CCCN(CCS(C)(=O)=O)C4)cc3c2C(C)C)cn2ncnc12 (stereo not drawn) [Example 253]")
"5 nM"
>>> value_reported("Cc1cc(-c2[nH]c3ccc(C4CCCCC4)cc3c2C(C)C)cc(C)n1 [Example 469]")
"1110 nM"
>>> value_reported("COCCN1CCOC(c2ccc3[nH]c(-c4cc(C)nc(C)c4)c(C(C)C)c3c2)C1 (stereo not drawn) [Example 352]")
"42 nM"
>>> value_reported("COc1cc(-c2[nH]c3ccc(C4CCC(N5CC[C@@H](N(C)C)C5)CC4)cc3c2C(C)C)cn2ncnc12 (stereo partly drawn) [Example 30]")
"3 nM"
>>> value_reported("Cc1c(-c2[nH]c3ccc(C4CC5CN(C6CCOC6)CC5C4)cc3c2C(C)C)cn2cnnc2c1C (stereo not drawn) [Example 562]")
"4 nM"
>>> value_reported("CNC1CCC(c2ccc3[nH]c(-c4cc(OC)c5ncnn5c4)c(C(C)C)c3c2)CC1 (single isomer, unassigned) [Example 145]")
"0.22 nM"
>>> value_reported("Cc1cc(-c2[nH]c3ccc(C4CCC(N(C)C5CC5)CC4)cc3c2C(C)C)cn2ncnc12 (single isomer, unassigned) [Example 9]")
"0.36 nM"
>>> value_reported("Cc1cc(-c2[nH]c3ccc(C4CN(C)CCO4)cc3c2C(C)C)cn2ncnc12 (stereo not drawn) [Example 297]")
"2 nM"
>>> value_reported("COc1cc(-c2[nH]c3ccc(C4CNC(C)(C)CO4)cc3c2C(C)C)cn2ncnc12 (stereo not drawn) [Example 368]")
"0.45 nM"
>>> value_reported("COc1ccc(-c2[nH]c3ccc(C4CCC(N)CC4)cc3c2C(C)C)cc1OC (stereo not drawn) [Example 450]")
"8 nM"

---

# measured-on: human TLR7 (Homo sapiens)
# Construct: host or cells: HEK-Blue cells
# test-method-notes: TLR7 inhibition reporter assay (HEK-Blue cells, SEAP reporter, gardiquimod stimulation)
# Format: cell-based
# condition-summary: HEK-Blue cells overexpressing human TLR7, SEAP reporter, gardiquimod 7.5 μM
# Excerpt: TLR7/8/9 Inhibition Reporter Assays HEK-Blue™-cells (Invivogen) overexpressing human TLR7, TLR8 or TLR9 receptors were used for screening inhibitors of these receptors using an inducible SEAP (secreted embryonic alkaline phosphatase) reporter gene under the control of the IFN-β minimal promoter fused to five NF-κB and AP-1-binding sites. […]
# IC50 per entry
assay-readout: IC50 (nM)

>>> value_reported("CNC1CCC(c2ccc3[nH]c(-c4cc(C)c5ncnn5c4)c(C(C)C)c3c2)CC1 (single isomer, unassigned) [Example 58]")
2
>>> value_reported("Cc1c(-c2[nH]c3ccc(C4CN(CC(C)C)C4)cc3c2C(C)C)cn2cnnc2c1C [Example 549]")
6
>>> value_reported("Cc1cc(-c2[nH]c3ccc([C@H]4C[C@H]4C(=O)NC4CCNCC4)cc3c2C(C)C)ccn1 [Example 456]")
124
>>> value_reported("COc1cc(-c2[nH]c3ccc(C4CN(C)C(C)(C)CO4)cc3c2C(C)C)cn2ncnc12 (stereo not shown) [Example 377]")
2

---

# measured-on: human TLR7 (Homo sapiens, UniProt Q9NYK1)
# test-method-notes: TLR7 inhibition reporter assay (HEK-Blue cells, SEAP reporter, gardiquimod stimulation)
# condition-summary: HEK-Blue cells overexpressing human TLR7, SEAP reporter, gardiquimod 7.5 μM
pIC50: −log10 of the molar value.
assay-readout: pIC50

>>> value_reported("Cc1cc(-c2[nH]c3ccc(C4CN(CCS(C)(=O)=O)CCO4)cc3c2C(C)C)cn2ncnc12 (centres unmarked) [Example 343]")
8.00
>>> value_reported("COc1cc(-c2[nH]c3ccc(C4CCCN(CC(=O)N(C)C)C4)cc3c2C(C)C)cn2ncnc12 (centres unmarked) [Example 224]")
8.70
>>> value_reported("COc1cc(-c2[nH]c3ccc(C4CN(C(C)C)CCO4)cc3c2C(C)C)cn2ncnc12 (centres unmarked) [Example 300]")
8.70
>>> value_reported("CC(C)c1c(-c2ccnc3[nH]ncc23)[nH]c2ccc(CCC3CCNCC3)cc12")
7.85
>>> value_reported("Cc1cc(-c2[nH]c3ccc(C4CNC4)cc3c2C(C)C)cc(C)n1")
8.40
>>> value_reported("Cc1c(-c2[nH]c3ccc(C4CCC(NC5COC5)CC4)cc3c2C(C)C)cn2cnnc2c1C (centres unmarked) [Example 523]")
9.32
>>> value_reported("Cc1c(-c2[nH]c3ccc(C4CC(N)C4)cc3c2C(C)C)cn(C)c(=O)c1C (centres unmarked) [Example 493]")
7.80
>>> value_reported("Cc1cc(-c2[nH]c3ccc(C4CN(C5CCS(=O)(=O)CC5)C4)cc3c2C(C)C)cc(C)n1")
7.85

---

# measured-on: human TLR8 (Homo sapiens)
# Sequence (Q9NR97 27-1041): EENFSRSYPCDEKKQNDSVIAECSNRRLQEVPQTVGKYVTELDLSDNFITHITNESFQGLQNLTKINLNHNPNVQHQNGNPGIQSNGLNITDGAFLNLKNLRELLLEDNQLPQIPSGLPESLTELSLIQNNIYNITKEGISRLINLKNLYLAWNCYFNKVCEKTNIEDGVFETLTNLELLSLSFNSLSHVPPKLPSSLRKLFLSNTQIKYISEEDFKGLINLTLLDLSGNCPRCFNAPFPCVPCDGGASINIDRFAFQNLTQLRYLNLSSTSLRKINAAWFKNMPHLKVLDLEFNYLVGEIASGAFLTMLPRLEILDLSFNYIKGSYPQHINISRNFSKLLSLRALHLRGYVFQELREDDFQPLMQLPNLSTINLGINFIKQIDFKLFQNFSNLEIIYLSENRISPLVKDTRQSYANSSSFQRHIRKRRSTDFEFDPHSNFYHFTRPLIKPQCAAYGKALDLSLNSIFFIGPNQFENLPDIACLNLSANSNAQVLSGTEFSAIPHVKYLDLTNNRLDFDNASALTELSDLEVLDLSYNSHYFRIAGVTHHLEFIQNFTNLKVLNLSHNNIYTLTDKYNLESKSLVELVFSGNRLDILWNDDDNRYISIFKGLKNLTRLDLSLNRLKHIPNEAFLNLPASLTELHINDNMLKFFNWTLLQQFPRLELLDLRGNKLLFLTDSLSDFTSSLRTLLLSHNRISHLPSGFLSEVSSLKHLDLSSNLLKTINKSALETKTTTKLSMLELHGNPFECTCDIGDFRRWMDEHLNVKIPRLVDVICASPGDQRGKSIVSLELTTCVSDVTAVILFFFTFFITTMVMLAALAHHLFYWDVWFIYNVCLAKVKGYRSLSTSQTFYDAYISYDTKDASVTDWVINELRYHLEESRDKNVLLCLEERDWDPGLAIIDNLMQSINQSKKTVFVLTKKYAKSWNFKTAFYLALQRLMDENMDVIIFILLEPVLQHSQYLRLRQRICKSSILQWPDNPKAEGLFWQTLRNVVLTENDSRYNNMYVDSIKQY
# test-method-notes: TLR8 inhibition reporter assay (HEK-Blue cells, SEAP reporter, R848 stimulation)
# condition-summary: HEK-Blue cells overexpressing human TLR8, SEAP reporter, R848 15.9 μM
pIC50: −log10 of the molar value.
# pIC50 per entry
assay-readout: pIC50

>>> value_reported("COc1cc(-c2[nH]c3ccc(C4CN(C(=O)CN5CCS(=O)(=O)CC5)CCO4)cc3c2C(C)C)cn2ncnc12 (stereo not shown)")
7.17
>>> value_reported("COc1ccc(-c2[nH]c3ccc(C4CCC(O)CC4)cc3c2C(C)C)cc1OC (stereo not shown) [Example 452]")
6.13
>>> value_reported("CN[C@H](C)C(=O)N1CCCC(c2ccc3[nH]c(-c4cc(C)nc(C)c4)c(C(C)C)c3c2)C1 (stereo partly shown) [Example 217]")
7.29
>>> value_reported("Cc1c(-c2[nH]c3ccc(C4CCC(NCC(=O)N(C)C)CC4)cc3c2C(C)C)cn(C)c(=O)c1C (stereo not shown) [Example 479]")
8.39
